# TEST_TARGET: T1, EsCas13d, nuclease-dead (Eubacterium siraeum, UniProt B0MS50, R295A;H300A;R849A;H854A)
# T1 sequence: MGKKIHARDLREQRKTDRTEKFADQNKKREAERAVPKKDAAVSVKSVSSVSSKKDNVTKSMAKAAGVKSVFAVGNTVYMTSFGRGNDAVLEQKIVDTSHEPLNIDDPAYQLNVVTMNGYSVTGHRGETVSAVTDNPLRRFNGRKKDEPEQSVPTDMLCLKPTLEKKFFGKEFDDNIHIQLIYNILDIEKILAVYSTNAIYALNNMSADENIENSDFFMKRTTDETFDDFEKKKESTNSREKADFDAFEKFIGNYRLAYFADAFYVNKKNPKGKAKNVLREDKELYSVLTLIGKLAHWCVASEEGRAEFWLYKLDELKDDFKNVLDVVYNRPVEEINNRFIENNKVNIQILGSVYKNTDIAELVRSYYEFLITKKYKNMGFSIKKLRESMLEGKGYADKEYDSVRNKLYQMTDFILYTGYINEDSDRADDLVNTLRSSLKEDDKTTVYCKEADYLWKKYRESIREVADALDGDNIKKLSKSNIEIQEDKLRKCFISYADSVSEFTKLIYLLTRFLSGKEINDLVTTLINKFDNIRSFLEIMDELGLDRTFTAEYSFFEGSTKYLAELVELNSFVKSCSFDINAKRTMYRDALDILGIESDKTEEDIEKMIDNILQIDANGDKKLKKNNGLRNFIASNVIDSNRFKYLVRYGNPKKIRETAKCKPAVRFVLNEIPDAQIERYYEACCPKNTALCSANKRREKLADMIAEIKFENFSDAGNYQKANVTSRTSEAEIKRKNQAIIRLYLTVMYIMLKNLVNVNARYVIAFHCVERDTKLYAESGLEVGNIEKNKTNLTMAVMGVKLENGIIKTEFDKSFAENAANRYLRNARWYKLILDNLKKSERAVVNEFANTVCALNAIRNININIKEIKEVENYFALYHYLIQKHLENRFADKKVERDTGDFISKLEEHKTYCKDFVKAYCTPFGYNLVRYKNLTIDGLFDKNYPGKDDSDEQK
# PROTOCOL_DETAILS: crRNA (strand 1, pre-loaded); Mg2+; 40 mM Tris-HCl pH 7.5, 150 mM NaCl, 6 mM MgCl2, 1 mM DTT, 0.1% Tween-20, 0.2 mg/ml BSA; 25 C; 10 min per concentration, then washed
# CONDITION_DESCRIPTION: tags: His6-TwinStrep-SUMO cleaved; N-terminal SNAP kept (SNAP-Surface 488); label: 3' end held by stalled T7 RNA polymerase
binders and their reported Kd
PARAMETER_MEASURED: Kd

binder="target 1 insA 3' of 10,insC 3' of 1 (mixed) RNA 1: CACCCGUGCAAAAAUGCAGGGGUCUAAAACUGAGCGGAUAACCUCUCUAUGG RNA 2: GGGAAUGGAUCCACAUCUACGAAUUCGUACCAUAGAGAGGUUAAUCCGCUCACCCGAGAUCGGAAGAGCACACGU" observed_value="12.6 nM"
binder="target 1 MT 5'PFS GGA 3'PFS CGG (mixed) RNA 1: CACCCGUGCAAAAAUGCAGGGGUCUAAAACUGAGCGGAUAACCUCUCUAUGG RNA 2: GGGAAUGGAUCCACAUCUACGAAUUCGGACCAUAGAGAGGUUAUCCGCUCACGGAGAUCGGAAGAGCACACGU" observed_value="20.6 nM"
binder="target 3 A5C,U8G (mixed) RNA 1: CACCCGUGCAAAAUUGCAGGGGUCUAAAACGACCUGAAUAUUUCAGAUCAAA RNA 2: GGGAAUGGAUCCACAUCUACGAAUUCGUUUUUGAUCUGAAAUAGUCCGGUCUGCAGAUCGGAAGAGCACACGU" observed_value="74 nM"
binder="target 1 A9C,G15U (mixed) RNA 1: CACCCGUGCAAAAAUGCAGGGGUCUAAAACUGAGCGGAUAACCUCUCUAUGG RNA 2: GGGAAUGGAUCCACAUCUACGAAUUCGUACCAUAGAUAGGUUCUCCGCUCACCGAGAUCGGAAGAGCACACGU" observed_value="~70 nM"
binder="target 1 C6U,C7A (mixed) RNA 1: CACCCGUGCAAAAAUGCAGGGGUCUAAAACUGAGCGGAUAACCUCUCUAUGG RNA 2: GGGAAUGGAUCCACAUCUACGAAUUCGUACCAUAGAGAGGUUAUAUGCUCACCGAGAUCGGAAGAGCACACGU" observed_value="8.6 nM"
binder="target 1 insC 3' of 17,insC 3' of 1 (mixed) RNA 1: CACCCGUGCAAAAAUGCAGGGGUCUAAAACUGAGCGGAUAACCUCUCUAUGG RNA 2: GGGAAUGGAUCCACAUCUACGAAUUCGUACCAUAGCAGAGGUUAUCCGCUCACCCGAGAUCGGAAGAGCACACGU" observed_value="39 nM"
binder="target 1 MT 5'PFS CUC 3'PFS UGC (mixed) RNA 1: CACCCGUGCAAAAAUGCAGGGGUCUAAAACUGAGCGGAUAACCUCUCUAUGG RNA 2: GGGAAUGGAUCCACAUCUACGAAUUCCUCCCAUAGAGAGGUUAUCCGCUCAUGCAGAUCGGAAGAGCACACGU" observed_value="~60 nM"
binder="target 2 MT 5'PFS AUU 3'PFS ACU (mixed) RNA 1: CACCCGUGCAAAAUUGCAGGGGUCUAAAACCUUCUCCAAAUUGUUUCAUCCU RNA 2: GGGAAUGGAUCCACAUCUACGAAUUCAUUAGGAUGAAACAAUUUGGAGAAGACUAGAUCGGAAGAGCACACGU" observed_value="10.7 nM"
